Numbers sourced from patent US10501493B2.

The molecules listed here are annotated with their pIC50.
- targetSystem: E. coli SPase (Escherichia coli)
- Construct: Full length His-tagged E. coli SPase proteins were expressed in E. coli BL21(DE3); His-tag; made in house; host or cells: E. coli BL21(DE3)
- testDescription: Enzymatic fluorogenic substrate cleavage assay for IC50
- Assay type: biochemical
pIC50: −log10 of the molar value.

Below: 2 molecules and their reported pIC50.
>>> testresult("CCCCCCCCCCCCCCCC(=O)N(C)[C@H](CO)C(=O)N[C@H](C)C(=O)NCC(=O)N(C)[C@@H]1C(=O)N[C@@H](C)C(=O)N[C@H](C(=O)NCCOC)Cc2ccc(O)c(c2)-c2cc1ccc2O")
"5.00 to 6.00"
>>> testresult("CCCCCCCCCCCCCCCC(=O)N(C)[C@H](CO)C(=O)N[C@H](CCc1ccccc1)C(=O)NCC(=O)N(C)[C@@H]1C(=O)N[C@@H](C)C(=O)N[C@H](C(=O)O)Cc2ccc(O)c(c2)-c2cc1ccc2O")
"> 6.00"

Incoming: I'd like to know its pIC50. The molecule in question is CCCCCCCCCCCCCCCC(=O)N(C)[C@H](CO)C(=O)N[C@H](C)C(=O)NCC(=O)N(C)[C@@H]1C(=O)N[C@@H](C)C(=O)N[C@H](C(=O)N[C@H](CO)C(C)O)Cc2ccc(O)c(c2)-c2cc1ccc2O (stereo partly shown)
Outgoing: 5.00 to 6.00

Incoming: I'd like to know its pIC50. The molecule in question is `CCCCCCCCCCCCCCCC(=O)N(C)[C@H](CO)C(=O)N[C@H](C)C(=O)NCC(=O)N(C)[C@@H]1C(=O)N[C@@H](C)C(=O)N[C@H](C(=O)OC[C@H](C)N)Cc2ccc(O)c(c2)-c2cc1ccc2O`
Outgoing: 5.00 to 6.00
